biological target: CDK2/cyclinE1 (Homo sapiens); assay: Cyclin-dependent kinase activity assay (continuous ATP coupling assay), CDK2/cyclinE1; details: CDK2/cyclinE1 5 nM, ATP 300 μM, Rb copeptide 100 μM, 15 min preincubation, pH 7.5, 1% DMSO
IC50 overview

See these solved cases before continuing.
CNS(=O)(=O)c1ccc(Nc2ncc(C(F)(F)F)c(-n3cc(CC(C)C)cn3)n2)cc1; 10 to 100 nM
O=S(=O)(c1ccc(Nc2ncc(C(F)(F)F)c(-n3cccn3)n2)cc1)N1CCNCC1; ≤ 10 nM
CNS(=O)(=O)c1ccc(Nc2ncc(C(F)(F)F)c(-n3cc(C4CCN(C)C4)cn3)n2)cc1 (single isomer, unassigned) [Example 95]; ≤ 10 nM

Exam item: If you can, please state the reported IC50 value of `CNS(=O)(=O)c1ccc(Nc2ncc(C(F)(F)F)c(-n3cccn3)n2)cc1` .
Marked response: ≤ 10 nM

Exam item: Entry under review: `CC(C)(O)CCc1cnn(-c2nc(NC3CCN(S(C)(=O)=O)CC3)ncc2C(F)(F)F)c1` . Reported IC50?
Marked response: 10 to 100 nM

====

target: CDK2/cyclinE1 (Homo sapiens, UniProt P24941); experiment: Cyclin-dependent kinase activity assay (continuous ATP coupling assay), CDK2/cyclinE1; details: CDK2/cyclinE1 5 nM, ATP 300 μM, Rb copeptide 100 μM, 15 min preincubation, pH 7.5, 1% DMSO
pIC50: −log10 of the molar value.
pIC50 values by entry

The examples below pair each entry with its known result.
CNS(=O)(=O)c1ccc(Nc2ncc(C(F)(F)F)c(-n3cc(C(C)(C)C#N)cn3)n2)cc1; 7.00 to 8.00
O=S(=O)(NCCO)c1ccc(Nc2ncc(C(F)(F)F)c(-n3cccn3)n2)cc1F; 7.00 to 8.00
CC(C)(O)Cc1cnn(-c2nc(Nc3ccc(S(=O)(=O)NC4CC4)cc3)ncc2C(F)(F)F)c1; 7.00 to 8.00
CN1CCC(N2CCN(c3ccc(Nc4ncc(C(F)(F)F)c(-n5cccn5)n4)cc3)CC2)CC1; ≤ 7.00

Exam item: pIC50 for `CNS(=O)(=O)c1ccc(Nc2ncc(C(F)F)c(-n3cccn3)n2)cc1` ?
Marked response: 7.00 to 8.00

Exam item: Look up pIC50 for this compound: `CNS(=O)(=O)c1ccc(Nc2ncc(C(F)(F)F)c(-n3cc(C(C)(C)CO)cn3)n2)cc1`
Marked response: ≥ 8.00

Exam item: Bench note: what pIC50 did `CNS(=O)(=O)c1ccc(Nc2ncc(C(F)(F)F)c(-n3cc(C4CCN(C(C)=O)CC4)cn3)n2)cc1` show?
Marked response: 7.00 to 8.00

Exam item: What value of pIC50 has been reported for the following compound? `CNS(=O)(=O)c1ccc(Nc2ncc(C(F)(F)F)c(-n3cc([C@@H]4CCNC4)cn3)n2)cc1`
Marked response: ≥ 8.00

Exam item: Which measured pIC50 value corresponds to CNS(=O)(=O)c1ccc(Nc2ncc(C(F)(F)F)c(-n3cc(C4CCN(C)C4)cn3)n2)cc1 (single isomer, unassigned) [Example 96] ?
Marked response: ≥ 8.00

Exam item: Look at this compound and give its reported pIC50. `CNS(=O)(=O)c1ccc(Nc2ncc(C(F)(F)F)c(-n3cc(C4CCCC4)cn3)n2)cc1`
Marked response: ≥ 8.00

====

Target: CDK4/cyclinD3 (Homo sapiens)
Sequence (P11802 whole entry): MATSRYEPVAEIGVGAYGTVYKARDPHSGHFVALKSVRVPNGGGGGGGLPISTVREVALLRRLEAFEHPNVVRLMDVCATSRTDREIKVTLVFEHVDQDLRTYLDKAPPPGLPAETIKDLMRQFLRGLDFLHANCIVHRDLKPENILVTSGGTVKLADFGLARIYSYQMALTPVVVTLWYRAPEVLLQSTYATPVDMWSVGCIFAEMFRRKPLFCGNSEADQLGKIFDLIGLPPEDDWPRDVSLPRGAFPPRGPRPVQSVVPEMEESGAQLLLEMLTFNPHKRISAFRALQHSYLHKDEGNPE
Sequence (P30281 whole entry partner): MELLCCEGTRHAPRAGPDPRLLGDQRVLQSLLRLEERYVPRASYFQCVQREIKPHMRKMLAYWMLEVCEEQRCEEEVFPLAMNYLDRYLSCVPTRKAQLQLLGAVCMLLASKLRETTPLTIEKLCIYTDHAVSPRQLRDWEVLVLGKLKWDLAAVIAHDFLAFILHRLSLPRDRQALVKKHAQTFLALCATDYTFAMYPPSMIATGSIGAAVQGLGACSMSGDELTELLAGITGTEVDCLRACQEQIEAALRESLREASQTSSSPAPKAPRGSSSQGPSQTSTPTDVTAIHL
Test: Cyclin-dependent kinase activity assay (continuous ATP coupling assay), CDK4/cyclinD3
Settings: CDK4/cyclinD3 60 nM, ATP 500 μM, Rb copeptide 500 μM, 15 min preincubation, pH 7.5, 1% DMSO
Description: Cyclin-dependent kinase activity assay was measured by continuous ATP coupling assay in which ADP generated by kinase catalyzed phosphorylation was converted back to ATP by consuming phosphoenolpyruvate (PEP) and NADH catalyzed by pyruvate kinase/lactate dehydrogenase (PK/LDH). […] For inhibition assay, compounds were first serial diluted in a 1:3 ratio from 10 μM to 0.05 nM using 10× reaction buffer. […] Data were analyzed using commercially available software Graphpad Prism. […]
pIC50: −log10 of the molar value.
endpoint: pIC50

Would you please look over these solved cases?
O=S(=O)(CCCO)c1ccc(Nc2ncc(C(F)(F)F)c(-n3cccn3)n2)cc1; ≤ 7.00
CNS(=O)(=O)c1ccc(Nc2ncc(C(F)(F)F)c(-n3cc(C(C)(C)C#N)cn3)n2)cc1; 7.00 to 8.00
CNS(=O)(=O)c1ccc(Nc2ncc(C)c(-n3cccn3)n2)cc1; ≤ 7.00
CNS(=O)(=O)c1ccc(Nc2ncc(C(F)(F)F)c(-n3cc([C@@H]4CCC[C@@H]4O)cn3)n2)cc1 (single isomer, unassigned); 7.00 to 8.00

Exam item: For CNS(=O)(=O)c1ccc(Nc2ncc(C(F)(F)F)c(-n3cc(C4CC4(F)F)cn3)n2)cc1 (single isomer, unassigned) [Example 53] , what is its reported pIC50?
Marked response: ≤ 7.00

Exam item: # lookup: pIC50 of `CNS(=O)(=O)c1ccc(Nc2ncc(F)c(-n3cccn3)n2)cc1`
Marked response: ≤ 7.00

Exam item: Need pIC50 of `O=S(=O)(NCCOC1CC1)c1ccc(Nc2ncc(C(F)(F)F)c(-n3cccn3)n2)cc1` , thanks.
Marked response: ≤ 7.00

Exam item: Which pIC50 is reported for this compound? CNS(=O)(=O)c1ccc(Nc2ncc(C(F)(F)F)c(-n3cc(C4CCOC4)cn3)n2)cc1 (single isomer, unassigned) [Example 89]
Marked response: 7.00 to 8.00

Exam item: What value of measured pIC50 is listed for `FC(F)(F)c1cnc(Nc2ccc(S(F)(F)(F)(F)F)cc2)nc1-n1cccn1` ?
Marked response: ≤ 7.00

Exam item: Reported pIC50, compound CCS(=O)(=O)N1C2CCC1CC(Nc1ncc(C(F)(F)F)c(-n3cccn3)n1)C2 (stereo not drawn) : ____
Marked response: ≤ 7.00
